Values were extracted from patent US20040147432A1.

# testedOn: human melanin concentrating hormone type 2 receptor (MCH-2R) (human, UniProt Q969V1 1-340)
# Sequence (Q969V1 whole entry, form in doubt): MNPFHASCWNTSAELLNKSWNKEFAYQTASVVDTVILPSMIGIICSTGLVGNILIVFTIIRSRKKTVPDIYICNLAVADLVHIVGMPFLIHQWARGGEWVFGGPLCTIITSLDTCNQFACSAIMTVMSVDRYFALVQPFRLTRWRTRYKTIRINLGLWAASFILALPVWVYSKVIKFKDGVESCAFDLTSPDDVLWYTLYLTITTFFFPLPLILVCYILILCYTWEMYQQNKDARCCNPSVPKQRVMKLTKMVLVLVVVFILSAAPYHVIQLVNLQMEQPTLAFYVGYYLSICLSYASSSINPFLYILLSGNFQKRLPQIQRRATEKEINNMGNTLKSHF
# assayInfo: cell-based or functional assay
Bridges are numbered along the chain shown (N, C = ends). [ ]: non-standard residue; d: D form.
quantityName: Activation % at 10 µM (aequorin functional assay) (%)

- binder: "Ac-RCML[dA]RVYRPC-NH2 (disulfide 2-11; SMILES CSCC[C@@H]1NC(=O)[C@@H](NC(=O)[C@H](CCCNC(=N)N)NC(C)=O)CSSC[C@@H](C(N)=O)NC(=O)[C@@H]2CCCN2C(=O)[C@H](CCCNC(=N)N)NC(=O)[C@H](Cc2ccc(O)cc2)NC(=O)[C@H](C(C)C)NC(=O)[C@H](CCCNC(=N)N)NC(=O)[C@@H](C)NC(=O)[C@H](CC(C)C)NC1=O, also called D-Ala^10) [SEQ. ID. NO. 13]"
  observed: 103

a: RCXLGRVYRPC (Nle^8 (norleucine), also called Nle^8) [SEQ. ID. NO. 5]
b: RCMLGXVYRPC (Harg^11 (homoarginine), also called Harg^11) [SEQ. ID. NO. 24]
c: RCMLGRVXRPC (Phe(pNH2)^13) [SEQ. ID. NO. 30]
Sort by Activation % at 10 µM (aequorin functional assay), descending. # list labels per requested ordering
a, c, b
(a: 105%, c: 70%, b: 43%)

1: RCMLXRVYRPC (Phg^10 (phenylglycine), also called Phg^10) [SEQ. ID. NO. 12]
2: RCALXRVYRPC (not fully specified; D-Ala^10, also called Ala^8, D-Ala^10) [SEQ. ID. NO. 35]
Which one would you say has the larger Activation % at 10 µM (aequorin functional assay) value: 1 , or 2 ? Which one? Tell me its label.
2
(2: 120%, 1: 80%)
